- System: A673 Ewing's sarcoma cells
- method: Cell viability after guaiacol treatment, A673
- Type: cell-based
- run-parameters: Homo sapiens; A673 cells, FIG. 31B; read-out: IC50
observable: IC50

IC50 in this record for COc1ccccc1O : ~20 µM

Data origin: patent US11712432B2
